ERα (% of the control) mean ± S.D.: recorded values
Target: ERα (Homo sapiens)
Construct: expressed in transfected cells; host or cells: Hela cells (ER expression free)
Experiment: ERα luciferase reporter gene transcription activation in transfected Hela cells
Format: cell-based
Conditions: Hela cells, 10^−6 M, 24 h
MEASUREMENT_LABEL: ERα (% of the control) mean ± S.D.

COMPOUND	TEST_VALUE
O=C(O[C@@H]1Cc2c(O)cc(O)cc2O[C@@H]1c1ccc(O)c(O)c1)c1cc(O)c(O)c(O)c1 [(−)Epicatechin-3-O-gallate, (−)epicatechin-3-O-gallate]	192.40 ± 27.72 % of the control
O=C(CCc1ccc(O)cc1)c1c(O)cc(O)cc1O[C@@H]1O[C@H](CO)[C@@H](O)[C@H](O)[C@H]1O	122.09 ± 11.33 % of the control
Cc1cc(O)c2c(c1)C(=O)c1cccc(O)c1C2=O	122.89 ± 8.94 % of the control
O=C1C[C@@H](c2ccc(O[C@@H]3O[C@H](CO)[C@@H](O)[C@H](O)[C@H]3O)cc2)Oc2cc(O)cc(O)c21 [Naringenin-4′-O-glucoside, naringenin-4′-O-glucoside]	198.72 ± 3.99 % of the control
Cc1cc(O)c2c(c1)C(=O)c1cc(O)cc(O)c1C2=O	146.40 ± 18.07 % of the control

====

Biological target: ERβ (Homo sapiens, UniProt Q92731)
Construct: expressed in transfected cells; host or cells: Hela cells (ER expression free)
Sequence (Q92731 whole entry): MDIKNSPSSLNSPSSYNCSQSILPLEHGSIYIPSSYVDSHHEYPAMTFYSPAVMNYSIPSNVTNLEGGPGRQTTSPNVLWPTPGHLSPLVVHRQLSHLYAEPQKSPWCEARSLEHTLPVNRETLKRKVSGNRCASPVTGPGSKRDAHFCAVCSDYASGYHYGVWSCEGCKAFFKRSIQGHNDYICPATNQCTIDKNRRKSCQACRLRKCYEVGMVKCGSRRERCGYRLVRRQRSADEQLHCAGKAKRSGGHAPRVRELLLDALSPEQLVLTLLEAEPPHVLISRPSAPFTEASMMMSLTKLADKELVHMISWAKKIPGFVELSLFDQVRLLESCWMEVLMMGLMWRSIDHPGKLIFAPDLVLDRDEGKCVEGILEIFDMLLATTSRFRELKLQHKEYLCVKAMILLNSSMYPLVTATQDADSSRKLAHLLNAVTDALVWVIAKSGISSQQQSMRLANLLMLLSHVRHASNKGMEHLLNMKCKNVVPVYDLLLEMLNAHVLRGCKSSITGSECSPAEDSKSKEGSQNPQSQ
Assay: ERβ luciferase reporter gene transcription activation in transfected Hela cells
Format: cell-based
Conditions: Hela cells, 10^−8 M, 24 h
ERβ (% of the control) mean ± S.D.: recorded values

COMPOUND	ERβ (% of the control) mean ± S.D.
Cc1cc(O)c2c(c1)C(=O)c1cccc(O)c1C2=O [Chrysophanol, chrysophanol]	76.85 ± 8.82 % of the control
O=C1C[C@@H](c2ccc(O[C@@H]3O[C@H](CO)[C@@H](O)[C@H](O)[C@H]3O)cc2)Oc2cc(O)cc(O)c21 [Naringenin-4′-O-glucoside, naringenin-4′-O-glucoside]	180.98 ± 10.46 % of the control
Cc1cc(O)c2c(c1)C(=O)c1cc(O)cc(O)c1C2=O [Emodin, emodin]	104.92 ± 9.08 % of the control
O=C(CCc1ccc(O)cc1)c1c(O)cc(O)cc1O[C@@H]1O[C@H](CO)[C@@H](O)[C@H](O)[C@H]1O [Phlorizin, phlorizin]	109.38 ± 8.72 % of the control
O=C(O[C@@H]1Cc2c(O)cc(O)cc2O[C@@H]1c1ccc(O)c(O)c1)c1cc(O)c(O)c(O)c1 [(−)Epicatechin-3-O-gallate, (−)epicatechin-3-O-gallate]	131.16 ± 15.95 % of the control

====

Target: ERα (Homo sapiens, UniProt P03372)
Construct: expressed in transfected cells; host or cells: Hela cells (ER expression free)
Sequence (P03372 whole entry): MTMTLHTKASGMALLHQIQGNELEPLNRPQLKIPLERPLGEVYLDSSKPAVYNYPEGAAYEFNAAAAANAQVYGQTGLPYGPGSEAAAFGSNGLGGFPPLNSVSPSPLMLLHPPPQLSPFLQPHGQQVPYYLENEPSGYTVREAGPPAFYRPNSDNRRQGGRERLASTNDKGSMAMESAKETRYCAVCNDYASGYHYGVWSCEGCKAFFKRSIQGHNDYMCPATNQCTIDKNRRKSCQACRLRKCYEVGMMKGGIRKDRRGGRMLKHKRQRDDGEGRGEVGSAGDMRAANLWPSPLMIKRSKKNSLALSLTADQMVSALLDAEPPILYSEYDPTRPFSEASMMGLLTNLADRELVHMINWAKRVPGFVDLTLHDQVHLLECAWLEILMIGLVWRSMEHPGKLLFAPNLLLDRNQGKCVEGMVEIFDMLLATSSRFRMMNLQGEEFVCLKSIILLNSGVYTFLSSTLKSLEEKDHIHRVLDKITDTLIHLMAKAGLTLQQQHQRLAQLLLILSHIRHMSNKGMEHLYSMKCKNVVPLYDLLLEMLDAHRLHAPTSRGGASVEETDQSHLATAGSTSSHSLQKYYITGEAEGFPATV
Experiment: ERα luciferase reporter gene transcription activation in transfected Hela cells
Assay type: cell-based
Details: luciferase reporter gene
Description: Actually, estrogens show their biological activity by regulating estrogen responding genetic transcription. Formulation of sample solutions of catechin, (−)epicatechin-3-O-gallate, naringenin-4′-O-glucoside, phlorizin, emodin, chrysophanol (separately obtained from Example 1): […]
MEASUREMENT_LABEL: concentration at which the transcriptional activity of ERα is agonized

MOLECULE	TEST_VALUE
O=C(CCc1ccc(O)cc1)c1c(O)cc(O)cc1O[C@@H]1O[C@H](CO)[C@@H](O)[C@H](O)[C@H]1O	10^−6-10^−5 M
O=C(O[C@@H]1Cc2c(O)cc(O)cc2O[C@@H]1c1ccc(O)c(O)c1)c1cc(O)c(O)c(O)c1 [(−)Epicatechin-3-O-gallate, (−)epicatechin-3-O-gallate]	10^−8-10^−5 M
O=C1C[C@@H](c2ccc(O[C@@H]3O[C@H](CO)[C@@H](O)[C@H](O)[C@H]3O)cc2)Oc2cc(O)cc(O)c21 [Naringenin-4′-O-glucoside, naringenin-4′-O-glucoside]	10^−9-10^−5 M
Cc1cc(O)c2c(c1)C(=O)c1cc(O)cc(O)c1C2=O	10^−6 M
